System: Fibroblast
Assay Comment: Incucyte cell viability with human fibroblast; further: unitless GR value; below 1 slowed growth and below 0 cell loss
Format: toxicity, cell-based
Particulars: 6 h, 10 µM, compound concentration 10 uM, replicate number 1, timepoint 6 hours
Experimental Readout: Growth Rate
Form rule: numeric answer, no unit written next to it.

C[C@H]1[C@H]2CC[C@H]3[C@@H]4CC=C5C[C@@H](N(C)C)CC[C@]5(C)[C@H]4CC[C@]23CN1C    0.11
CCNC(=O)[C@H]1O[C@@H](n2cnc3c(N)nc(NCCc4ccc(CCC(=O)O)cc4)nc32)[C@H](O)[C@@H]1O.Cl    0.96
COc1c(Nc2ccc(S(C)(=O)=O)nc2C)ncnc1OC1CCN(C(=O)OC(C)C)CC1    0.72

Qu. Return value of Growth Rate for input COc1ccc2[nH]c(I)c(CCNC(C)=O)c2c1 , no commentary.
Ans. 0.67

Qu. Please give measured Growth Rate of the following entry: C[S+](C)[O-] [DIMETHYL SULFOXIDE]
Ans. 0.29

Qu. Identify measured Growth Rate associated with C(#Cc1cccc(CN2CCOCC2)c1)CCN1CCCCC1
Ans. 0.03

---

Growth Rate for assorted molecules
Test system: HEK-293T
Assay Comment: Incucyte cell viability with HEK293T; further: unitless GR value; below 1 slowed growth and below 0 cell loss
Format: toxicity, cell-based
Particulars: human, 12 h, 10 µM, compound concentration 10 uM, replicate number 1, timepoint 12 hours
Answer using only a numeral; do not append any unit.

Known results for molecules:
Nc1nc(Nc2ccccc2)nc2c1ncn2[C@@H]1O[C@H](CO)[C@@H](O)[C@H]1O    0.7
CC(C)(O)C(=O)N1CCN(c2ccc(C(F)(F)F)c(C3=C(c4c[nH]c5ccccc45)C(=O)NC3=O)c2)CC1    0.3

// below: Growth Rate requested for another molecule
Qu. Annotate the molecule CN1[C@@H]2CC[C@H]1C[C@@H](OC(=O)C(CO)c1ccccc1)C2 (stereo partly drawn) with its measured Growth Rate.
Ans. 0.68

---

Test system: Fibroblast
Assay Comment: Incucyte cell viability with human fibroblast; further: unitless GR value; below 1 slowed growth and below 0 cell loss
Format: toxicity, cell-based
Particulars: 12 h, 10 µM, compound concentration 10 uM, replicate number 2, timepoint 12 hours
Experimental Readout: Growth Rate

Qu. Give the observed Growth Rate of Cc1cc(OCCCS(C)(=O)=O)cc(C)c1-c1cccc(COc2ccc3c(c2)OC[C@H]3CC(=O)O)c1 for Fibroblast.
Ans. 0.55

Qu. Look up and report Growth Rate, with Fibroblast as system, for C[C@H]1[C@H](OC(=O)CCC(=O)O)O[C@@H]2O[C@@]3(C)CC[C@H]4[C@H](C)CC[C@@H]1[C@@]24OO3 [ARTESUNATE]
Ans. 0.75

Qu. Please look at CSCC[C@H](NC(=O)[C@@H]1CCCN1C(=O)CNC(=O)[C@H](CCCCN)NC(=O)[C@H](Cc1cnc[nH]1)NC(=O)[C@H](CO)NC(=O)[C@H](CC(C)C)NC(=O)[C@H](CCCNC(=N)N)NC(=O)[C@@H]1CCCN1C(=O)[C@H](CCCNC(=N)N)NC(=O)[C@@H](N)CCC(N)=O)C(=O)N1CCC[C@H]1C(=O)N[C@@H](Cc1ccccc1)C(=O)O and tell me its recorded Growth Rate on Fibroblast.
Ans. 0.8

Qu. Write down the reported Growth Rate (system: Fibroblast) of c1ccc(NCc2ccc(CNc3ccccn3)cc2)nc1
Ans. 0.64

Qu. Recall the reported Growth Rate of C[C@H](N)Cn1ccc2cc(F)c(Cl)cc21.O=C(O)/C=C/C(=O)O on Fibroblast and write it down.
Ans. 0.81

---

Test system: HEK-293T
Assay Comment: Incucyte cell viability with HEK293T; further: unitless GR value; below 1 slowed growth and below 0 cell loss
Format: toxicity, cell-based
Particulars: human, 24 h, 10 µM, compound concentration 10 uM, replicate number 2, timepoint 24 hours
Tag: Met if measured Growth Rate is not below 0.2, Not met if it is.

Known results for compounds:
CC(=O)c1ccc2c(c1)[C@@H]1C=CC[C@@H]1[C@H](c1cc3c(cc1Br)OCO3)N2    Not met
CC1(COc2ccc3c(c2)ncn3-c2ccc3cccc(N4CCC(N)CC4)c3n2)COC1    Not met
Cc1ccccc1-c1cc(N2CCN(C)CC2)ncc1N(C)C(=O)C(C)(C)c1cc(C(F)(F)F)cc(C(F)(F)F)c1    Met
CC(C)(C)c1ccc(-c2coc3ccc(-c4cn[nH]c4)nc23)cc1    Met
CC(C)(C)c1ccc(CSc2cnn(C(C)(C)C)c(=O)c2Cl)cc1    Met
CC(=O)O[C@H]1C(=O)[C@@]2(C)[C@H]([C@H](OC(=O)c3ccccc3)[C@]3(O)C[C@H](OC(=O)[C@H](O)[C@@H](NC(=O)c4ccccc4)c4ccccc4)C(C)=C1C3(C)C)[C@]1(OC(C)=O)CO[C@@H]1C[C@@H]2O    Not met
C[C@H]1CN(C[C@H](Cc2ccccc2)C(=O)NCC(=O)O)CC[C@@]1(C)c1cccc(O)c1    Met
Cc1cc(O)c(-c2ccc([C@@H](C)CN(C)C)cc2)c2c1[nH]c(=O)c1sccc12    Not met
Cn1cc(-c2ccc3occ(-c4cccc(-c5ccncc5)c4)c3n2)cn1    Not met

Qu. Tell me whether Growth Rate is at least 0.2 here: CC(C)[C@H](C(=O)Nc1ccc(C(=O)NO)cc1)c1ccccc1
Ans. Met

---

Test system: Fibroblast
Assay Comment: Incucyte cell viability with human fibroblast; further: unitless GR value; below 1 slowed growth and below 0 cell loss
Type: toxicity, cell-based
Particulars: 0 h, 10 µM, compound concentration 10 uM, replicate number 1, timepoint 0 hours
*1 amine or outer side, *2 acyl side, *3 side chain or, on linkers, in order; H or OH if unused. Where a SMILES comes first, the peptide text is derived from it. Bridges are numbered along the chain shown (N, C = ends). [ ]: non-standard residue; d: D form. The star is where a group is joined. dPhe(4-NHCONH2) = NC(=O)Nc1ccc(C[C@@H](N)C(=O)O)cc1; Dihydroorotyl(S) = O=C1C[C@@H](C(=O)*)NC(=O)N1; dPhe(4-Cl) = N[C@H](Cc1ccc(Cl)cc1)C(=O)O; Phe(4-NH2) = Nc1ccc(C[C@H](N)C(=O)O)cc1; d2Nal = N[C@H](Cc1ccc2ccccc2c1)C(=O)O; Lys(iPr) = CC(C)NCCCC[C@H](N)C(=O)O; d3Pal = N[C@H](Cc1cccnc1)C(=O)O; X1 = O=C(CCC[*:2])[*:1]
Listed compounds paired with reported Growth Rate
# answer = number (no unit)

// known answers, use as guide
CN1CCN(c2cc(-c3ccccc3)nc(N)n2)CC1    0.2
Nc1nccc(-c2ccn3c(N)nccc23)n1    -0.59
Cc1ccccc1-c1cc(N2CCN(C)CC2)ncc1N(C)C(=O)C(C)(C)c1cc(C(F)(F)F)cc(C(F)(F)F)c1    -0.23
CC(C)(C)c1cc(NC(=O)Nc2ccc(-c3cn4c(n3)sc3cc(OCCN5CCOCC5)ccc34)cc2)no1    -0.84
Br.CS(=O)(=O)Nc1c(O)ccc2c1CCCC2C1=NCCN1 (stereo not given)    0.32

Qu. Read off the recorded Growth Rate for COc1ccc2[nH]cc(CCNC(C)=O)c2c1
Ans. 0.91

Qu. Answer with reported Growth Rate of CCCN1CCO[C@H]2c3cc(O)ccc3OC[C@@H]21.Cl
Ans. 0.77

Qu. Note down Growth Rate recorded for C[C@H]1[C@H](OC(=O)CCC(=O)O)O[C@@H]2O[C@@]3(C)CC[C@H]4[C@H](C)CC[C@@H]1[C@@]24OO3 [ARTESUNATE]
Ans. 0.98

Qu. Return Growth Rate (reported value) for this compound: CC(=O)N[C@H](Cc1ccc2ccccc2c1)C(=O)N[C@H](Cc1ccc(Cl)cc1)C(=O)N[C@H](Cc1cccnc1)C(=O)N[C@@H](CO)C(=O)N[C@@H](Cc1ccc(NC(=O)[C@@H]2CC(=O)NC(=O)N2)cc1)C(=O)N[C@H](Cc1ccc(NC(N)=O)cc1)C(=O)N[C@@H](CC(C)C)C(=O)N[C@@H](CCCCNC(C)C)C(=O)N1CCC[C@H]1C(=O)N[C@H](C)C(N)=O [DEGARELIX] (Ac-[d2Nal][dPhe(4-Cl)][d3Pal]S[Phe(4-NH2)](Dihydroorotyl(S))[dPhe(4-NHCONH2)]L[Lys(iPr)]P[dA]-NH2)
Ans. -1

Qu. Answer with the recorded Growth Rate of CC1=C(C)C(=O)C(C(C)(C)CC(=O)N(CCCCSC[C@H]2O[C@@H](n3cnc4c(N)ncnc43)[C@@H]3OC(C)(C)O[C@@H]32)Cc2cccc(-c3ccc(Cl)cc3)c2)=C(C)C1=O only.
Ans. 0.04

Qu. Provide only the value of recorded Growth Rate for CCOc1c2c(c(OCC)c3ncccc13)CN(c1ccc(CS(=O)(=O)NC(=O)Cc3ccccc3OC)cc1C)C2=O
Ans. 0.27

Qu. Give recorded Growth Rate. CCNC1(C(N)=O)CCN(c2ncnc3c2nc(-c2ccccc2Cl)n3-c2ccc(Cl)cc2)CC1
Ans. -0.61

Qu. Supply Growth Rate value. Item: O=S(=O)(c1ccccc1)c1cnc2c(N3CCNCC3)cccc2c1 [INTEPIRDINE]
Ans. 0.87

Qu. Give the reported value of Growth Rate for this record: COc1ccncc1C(=O)NC(=O)Nc1ccc(-c2ccccc2)c(C(F)(F)F)c1
Ans. 0.48

Qu. # return recorded Growth Rate for entry Cc1ccc(OCC(O)C(C)NC(C)C)c2c1CCC2.Cl (stereo not given)
Ans. 0.41

Qu. Entry CC[C@H](C)[C@@H]1NC(=O)[C@H](Cc2ccc(OC)cc2)NC(=O)CCCSC[C@@H](C(=O)N2CCC[C@H]2C(=O)N[C@@H](CC(C)C)C(=O)NCC(N)=O)NC(=O)[C@H](CC(N)=O)NC(=O)[C@H](CCC(N)=O)NC1=O [CARBETOCIN] (Y(Me)IQNCPLG-NH2; linker N-5 via X1) needs its Growth Rate filled in; supply it.
Ans. 0.35

Qu. State its Growth Rate for this compound: Cc1nn(C)c(C)c1-c1cccc2c1CC[C@H](N(C)C)C2
Ans. 0.48

Qu. Could you please provide reported Growth Rate for CC(C)C[C@H](CO)Nc1nc(S[C@@H](C)c2ccccc2)nc2nc(N)sc12 ? Thanks!
Ans. 0.26

Qu. Provide Growth Rate value for the following compound: CSCC[C@H](NC=O)C(=O)N[C@@H](CC(C)C)C(=O)N[C@@H](Cc1ccccc1)C(=O)O
Ans. 0.43

Qu. Look up and state reported Growth Rate for c1cc(OCCCN2CCCCC2)ccc1CN1CCCCC1
Ans. 0.03

Entry source: ChEMBL document CHEMBL5058564
